These measurements were taken from PubChem BioAssay (NCI).

tested on: HL-60(TB) leukemia; assay: NCI-60 one-dose screen, 48 h; settings: 10 µM unless noted
The panel holds about 83,000 compounds, 20% with a hit somewhere; the sample as a whole holds those more often. The source made the active and inactive calls. The calls were made as follows: active = growth percent below 10; inactive = the rest.
Please reply with one of these outcomes: active, inactive

Please review the following examples before continuing.
> print(dat)
                            compound.string  label.value
1  O=[N+]([O-])c1ccc(S(=O)(=O)N2CCN(C3=NS(=O)(=O)c4ccccc4N3c3ccccc3)CC2)cc1     inactive
2  O=C(c1cccc(C(=O)c2ccc3c4c(cccc24)C(=O)N(c2ccccc2)C3=O)c1)c1ccc2c3c(cccc13)C(=O)N(c1ccccc1)C2=O     inactive
3  COC(=O)/C(=C\c1c(-c2ccccc2)[nH]c2ccccc12)S(C)(=O)=O       active
4  O=C(Cn1c(=O)sc2ccccc21)NNS(=O)(=O)c1ccccc1[N+](=O)[O-]     inactive

Attention now shifts to the item below.
Qu. Could you kindly confirm the outcome this assay logged for CC(=O)c1ccc(NCC(=O)Nc2ccccn2)cc1 ?
Ans. inactive

* * *

tested on: HL-60(TB) leukemia; assay: NCI-60 one-dose screen, 48 h; details: 10 µM unless noted
Compounds without any hit were thinned out: in the full panel of roughly 83,000, 20% have a hit. Active and inactive are the calls of the source. How the source made its calls: active means growth percent below 10; inactive means the rest.
Please answer using one outcome listed in 1 (yes) (active), 0 (no) (inactive)

Would you please look over these solved cases?
> print(dat)
                            compound.string  label.value
1          CC1(C)CN(Cc2ccccc2)CCN1Cc1ccccc1       0 (no)
2  COc1ccc(C/C(C)=C(/c2ccc(OCCN3CCCCC3)cc2)c2ccc(OC(=O)NCc3ccccc3)cc2)cc1      1 (yes)
3               CCCCN(CCCC)c1ccc(C(=O)O)cc1       0 (no)
4  COc1cc(-c2nc3occn3c2-c2ccnc(NCCNS(=O)(=O)c3ccc(Cl)cc3)n2)ccc1F       0 (no)

Qu. Please share the test call associated with c1cc2[nH]ncc2cc1-c1nc2ccc3[nH]ncc3c2c2c1CCCC2 .
Ans. 1 (yes)

* * *

tested on: HL-60(TB) leukemia; test: NCI-60 one-dose screen, 48 h; conditions: 10 µM unless noted
The panel holds about 83,000 compounds, 20% with a hit somewhere; the sample as a whole holds those more often. Active and inactive are the calls of the source. Rule for the calls: active = growth percent below 10; inactive = the rest.
Your answer must be one of the following: Yes = active, No = inactive

Recorded results for 5 compounds are shown here.
compound	label value
CCn1ccnc1C(=O)/C=C/c1ccc(CC(=O)Nc2ccc(F)cc2)cc1	No
Cc1ccc(C(C(N)=O)C(C(N)=O)c2ccccc2)cc1 (stereo unspecified)	No
CCCCC1C(=O)N(c2ccccc2)N(c2ccccc2)C1=O	No
Cc1ccc(NC(=O)NC(=O)CSc2nc3ccccc3nc2C)cc1	No
CCOc1cc(Br)c(C(C)NC(=O)c2cccc(OC)c2)cc1OCC (stereo unspecified)	No

Qu. Status in this test for O=[N+]([O-])c1ccc(-c2nc(N3CCOCC3)c3c4c(sc3n2)CCCC4)cc1 ?
Ans. No

Qu. Given Nc1nc(=S)c2ncn(C3OC(COC(=O)c4ccc(Cl)cc4)C(OC(=O)c4ccc(Cl)cc4)C3OC(=O)c3ccc(Cl)cc3)c2[nH]1 (stereo unspecified) , state the outcome it received in this test.
Ans. No

Qu. # outcome recorded in this test, key = CCn1c(SCC(=O)c2ccc(Br)cc2)nnc1-c1ccncc1
Ans. No

* * *

system: HL-60(TB) leukemia; experiment: NCI-60 one-dose screen, 48 h (100 = growth as untreated, 0 = no growth, -100 = all killed); conditions: 10 µM
The panel holds about 83,000 compounds, 20% with a hit somewhere; the sample as a whole holds those more often. Calls of active or inactive are those of the source. The calls were made as follows: active = growth percent below 10; inactive = the rest.
Give growth for every item shown.

Sample records with growth:
> print(dat)
                                   compound                 tgt  assay.metric    measured.value
1                   O=c1[nH]cc(F)c(=O)[nH]1  HL-60(TB) leukemia        growth  59.7% (inactive)
2  CC#C[C@]1(O)CC[C@H]2[C@@H]3CCC4=CC(=O)CCC4=C3[C@@H](c3ccc4c(c3)OCO4)C[C@@]21C  HL-60(TB) leukemia        growth  67.5% (inactive)
3  CC(C)(C)c1cc(NC(=O)Cc2ccc(-c3cnc4cc(-c5cnn(CCN6CCOCC6)c5)ccc4n3)cc2)no1  HL-60(TB) leukemia        growth    4.17% (active)

Look up growth for the entries below, preserving their order.
1. CCN(Cc1ccccc1)c1ccc(/C=C2\COc3ccccc3C2=O)cc1
2. CCCCCCCCCCCCCCCc1ccc(Cl)c(O)c1Cl (tested in a mixture with another compound)
3. CCc1ccccc1-n1c(N)c(C#N)c(-c2ccc(OC)c(OC)c2)c(C#N)c1=O

Ans.
1: 78.3% (inactive); 2: 118% (inactive); 3: 113% (inactive)

* * *

test system: HL-60(TB) leukemia; assay: NCI-60 one-dose screen, 48 h; details: 10 µM unless noted
This is part of a sample that, as a whole, favours compounds with a hit. Of some 83,000 tested, about 20% had one in any assay. Calls of active or inactive are those of the source. The calls were made as follows: active = growth percent below 10; inactive = the rest.
Assign a class; possible classes are Y for active, N for inactive

Known results for compounds:
> print(dat)
                                   compound                 tgt  label.value
1  N#CCN1C(=O)C2C3=C(CCCC3)SC2N=C1CN1CCCC1 (stereo unspecified)  HL-60(TB) leukemia            N
2  O=S(=O)(NCCCNc1cc(-c2c(-c3cccc(O)c3)nc3sccn23)ccn1)c1cccc(Cl)c1  HL-60(TB) leukemia            N
3  Cn1c(=O)cc(NC(=O)CN2CCN(c3cc4c(cc3F)c(=O)c(C(=O)O)cn4C3CC3)CC2)[nH]c1=O  HL-60(TB) leukemia            N
4  O=C(Nc1nc2c(s1)CCc1c-2c(Br)n(Cc2ccccc2)c1Br)c1ccccc1  HL-60(TB) leukemia            N
5  O=C(CCC(C(=O)c1ccccc1)c1ccccc1)c1ccccc1 (stereo unspecified)  HL-60(TB) leukemia            N

Qu. Write down the call the test reported for this compound. Item: CC1=C/C(=C(\c2ccc(N(C)C)cc2)c2ccc([N+](C)(C)C)cc2)C=CC1=[N+](C)C
Ans. N

Qu. Could you check what this test reported for Cc1ccc(C2C3CC4CCCCC4N3[C@@]3(C(=O)Nc4cc(Cl)ccc43)C2C(=O)c2nc3ccccc3[nH]2)cc1 (stereo partly specified) ?
Ans. Y

* * *

test system: HL-60(TB) leukemia; assay: NCI-60 one-dose screen, 48 h (100 = growth as untreated, 0 = no growth, -100 = all killed); conditions: 10 µM unless noted
This is part of a sample that, as a whole, favours compounds with a hit. Of some 83,000 tested, about 20% had one in any assay.
assay metric: growth (%)
Numbers only, in %.

molecule	growth (%)
Cc1ccc(C=C2C(Cl)=C(Cl)C(Cl)=C2Cl)cc1	7.68
O=C1OC(c2ccc(-c3ccccc3)cc2)=C/C1=C/c1cccs1	75
COc1c(CNC(=O)CCl)cc2[nH]c(C)cc2c1CNC(=O)CCl	39.4
Cc1ccc([C@@H]2C[C@H](O)Cc3ccccc3N2)s1	121
C/C=C/C(=O)OCCCCCCCCCCCC	85.2
CN1C(=O)/C(=C/c2ccc(C(=O)Nc3ncc(Cc4ccc(Cl)cc4)s3)cc2)SC1=S	57.6

I would be grateful if you could provide growth for each of the following entries.
1. C#Cc1cccc(Nc2ncnc3ccc(-c4cnc(N)nc4)cc23)c1
2. C/C(=N/NC(N)=S)c1ccc(C)cc1
3. Nc1n[nH]c2cccc(C#Cc3cccc(NC(=O)c4cccc(C(F)(F)F)c4)c3)c12
4. O=C1NC(=S)S/C1=C\c1cc(Br)ccc1O
5. O=C(/C=C/c1ccc(Cl)cc1)c1ccc(O)c(CN2CCN(c3cc4c(cc3F)c(=O)c(C(=O)O)cn4C3CC3)CC2)c1
6. O=C1/C(=C/c2ccc(Cl)cc2)SC(=S)N1CCc1ccc(O)cc1
7. CC(C)CCC[C@@H](C)[C@H]1CC[C@H]2[C@@H]3CC=C4C[C@@H](C(C(=O)O)C(=O)O)CC[C@]4(C)[C@H]3CC[C@]12C
8. COC(=O)[C@]12CC[C@@H](C)[C@H](C)[C@@H]1C1=CC[C@@H]3[C@@]4(C)CC(=O)[C@H](OC(=O)c5ccco5)[C@@]5(C)COC(=C45)C[C@@]3(C)[C@]1(C)CC2

Ans.
34.2
92
9.22
83.9
51.5
76.6
-44.4
24.6

Quick request: growth for each listed item, please.
1. O=C1NCc2ccc3c(-c4cccc(Cl)c4)c[nH]c3c21
2. COc1ccc(C(c2cc(OC)c(OC)c(OC)c2)N2CCN(c3ccccc3)CC2)cc1 (configuration not stated)
3. O=C1/C=C/[C@@H](O)[C@@H]2C[C@@H](O)C[C@H]2/C=C/CCCCO1

Ans.
1. -4.05
2. 67.1
3. -22.8
